Biological target: Tyrosinase (Agaricus bisporus)
Sequence (whole entry): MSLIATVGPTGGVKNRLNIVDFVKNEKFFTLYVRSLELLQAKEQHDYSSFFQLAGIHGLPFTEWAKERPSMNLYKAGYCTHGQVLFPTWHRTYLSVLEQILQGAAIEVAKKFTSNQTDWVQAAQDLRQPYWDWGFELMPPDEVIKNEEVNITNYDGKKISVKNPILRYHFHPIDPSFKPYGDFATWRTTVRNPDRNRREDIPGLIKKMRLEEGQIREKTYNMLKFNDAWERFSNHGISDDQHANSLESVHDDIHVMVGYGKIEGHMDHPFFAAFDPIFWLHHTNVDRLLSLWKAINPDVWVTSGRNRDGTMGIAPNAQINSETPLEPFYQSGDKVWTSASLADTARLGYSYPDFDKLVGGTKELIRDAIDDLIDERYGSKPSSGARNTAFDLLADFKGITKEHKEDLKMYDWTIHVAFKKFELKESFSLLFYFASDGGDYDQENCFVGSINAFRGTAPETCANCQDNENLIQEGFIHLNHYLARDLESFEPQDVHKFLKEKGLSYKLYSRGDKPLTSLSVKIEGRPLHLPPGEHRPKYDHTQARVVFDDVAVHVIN
Test: Inhibition of diphenolase activity of mushroom tyrosinase using L-DOPA as substrate assessed as formation of the DOPA chrome at 100 uM preincubated for 10 mins followed by substrate addition measured for 1 min by spectrophotometric analysis relative to control
The source made the active and inactive calls. The rule behind the calls is not given here.
measurement_label: inhibition

See these solved cases before continuing.
INSERT INTO assay_data (test_smiles, assay_value) VALUES
  ('COc1cccc2c1C(=O)c1c(OC)cc(/C=N/NC(N)=S)cc1C2=O', '76.4%'),
  ('CCOCOc1cccc2c1C(=O)c1c(OCOCC)cc(/C=N/NC(N)=S)cc1C2=O', '65.3%'),
  ('CO/N=C/c1cc(O)c2c(c1)C(=O)c1cccc(O)c1C2=O', '12.9%'),
  ('C=CCOc1cccc2c1C(=O)c1c(OCC=C)cc(/C=N/OCC)cc1C2=O', 'inactive'),
  ('CCOCOc1cccc2c1C(=O)c1c(OCOCC)cc(CO)cc1C2=O', '7.45%'),
  ('C=CCOc1cccc2c1C(=O)c1c(OCC=C)cc(C=O)cc1C2=O', '55.4%'),
  ('COc1cccc2c1C(=O)c1c(OC)cc(CO)cc1C2=O', '9.86%'),
  ('NC(=S)N/N=C/c1cc(O)c2c(c1)C(=O)c1cccc(O)c1C2=O', '78.6%');

Record `O=C1c2cccc(O)c2C(=O)c2c(O)cc(/C=N/O)cc21` / Tyrosinase (Agaricus bisporus), inhibition recorded as inactive

Considering `C=CCOc1cccc2c1C(=O)c1c(OCC=C)cc(/C=N/O)cc1C2=O` , its inhibition with Tyrosinase (Agaricus bisporus) was recorded as 57%

Measured on Tyrosinase (Agaricus bisporus), `C=CCOc1cccc2c1C(=O)c1c(OCC=C)cc(/C=N/OC)cc1C2=O` has a documented inhibition of inactive

Entry `O=C1c2cccc(O)c2C(=O)c2c(O)cc(/C=N/OCc3ccccc3)cc21` , tested on Tyrosinase (Agaricus bisporus), has a reported inhibition of inactive

The reported Tyrosinase (Agaricus bisporus) inhibition of `C=CCOc1cccc2c1C(=O)c1c(OCC=C)cc(CO)cc1C2=O` is 58.6%

Known value: Tyrosinase (Agaricus bisporus) inhibition of the compound `CCOCOc1cccc2c1C(=O)c1c(OCOCC)cc(C=O)cc1C2=O` equals inactive

Form field inhibition for item `O=Cc1cc(O)c2c(c1)C(=O)c1cccc(O)c1C2=O` on Tyrosinase (Agaricus bisporus): 49.4%

Test item `COc1cccc2c1C(=O)c1c(OC)cc(C=O)cc1C2=O` ; Tyrosinase (Agaricus bisporus); reported inhibition was inactive

Lab note: compound `CCO/N=C/c1cc(O)c2c(c1)C(=O)c1cccc(O)c1C2=O` tested on Tyrosinase (Agaricus bisporus); recorded inhibition was 18.3%

Simply: `CCO/N=C/c1cc(OC)c2c(c1)C(=O)c1cccc(OC)c1C2=O` , Tyrosinase (Agaricus bisporus), inhibition = inactive

Reading of inhibition for `CCCCOc1cccc2c1C(=O)c1c(OCCCC)cc(CO)cc1C2=O` with Tyrosinase (Agaricus bisporus): 73.6%

# value of inhibition, Tyrosinase (Agaricus bisporus), item `CO/N=C/c1cc(OC)c2c(c1)C(=O)c1cccc(OC)c1C2=O` = inactive

---

Assay: Drug degradation at 20 degC measured for 15 days
Format: physicochemical
Settings: read-out: Drug degradation
measurement_label: degraded at 360 h (%)
Express your answer in %, writing the number without its unit.

The recorded degraded at 360 h for entry `OC[C@H]1O[C@@H](Oc2ccc(O)cc2)[C@H](O)[C@@H](O)[C@@H]1O` equals 10

---

pIC50: −log10 of the molar value.
Entries with reported pIC50 on Tyrosinase (Agaricus bisporus, UniProt O42713)
measurement_label: pIC50

Example compounds with recorded pIC50:
INSERT INTO results (test_smiles, assay_value) VALUES
  ('O=Cc1cc(O)c2c(c1)C(=O)c1cccc(O)c1C2=O', 3.96),
  ('COc1cccc2c1C(=O)c1c(OC)cc(/C=N/NC(N)=S)cc1C2=O', 4.55),
  ('CCCCOc1cccc2c1C(=O)c1c(OCCCC)cc(CO)cc1C2=O', 4.48);

P: NC(=S)N/N=C/c1cc(O)c2c(c1)C(=O)c1cccc(O)c1C2=O
Q: C=CCOc1cccc2c1C(=O)c1c(OCC=C)cc(C=O)cc1C2=O
(Q) Would you mind telling me which has the lower recorded pIC50 between P and Q ? Indicate which entry you chose by stating its label.
(A) Q
(Q: 4.03, P: 4.61)

---

The compounds below have reported pIC50 for Tyrosinase (Agaricus bisporus, UniProt O42713).
pIC50: −log10 of the molar value.

Examples with answers:
INSERT INTO results (test_smiles, assay_value) VALUES
  ('CO/N=C/c1cc(O)c2c(c1)C(=O)c1cccc(O)c1C2=O', '< 3.70'),
  ('CCO/N=C/c1cc(O)c2c(c1)C(=O)c1cccc(O)c1C2=O', '< 3.70'),
  ('C=CCOc1cccc2c1C(=O)c1c(OCC=C)cc(CO)cc1C2=O', 4.04);

Assay Tyrosinase (Agaricus bisporus, UniProt O42713), sample `CCOCOc1cccc2c1C(=O)c1c(OCOCC)cc(CO)cc1C2=O` , pIC50 read: < 3.70

Hey, just so you know, these numbers are from ChEMBL document CHEMBL3632534.
